Method summary: NCI Yeast Anticancer Drug Screen. Data for the mlh1 rad18 strain (AID 175)
Assay setup: S. cerevisiae mlh1 rad18 strain growth inhibition; at 50.0 µM; active compounds read high
About 79,000 compounds went through this panel and 15% of them were active in at least one assay; those are over-represented in the sample as a whole. Activity calls are given as the source filed them. Rule as the data show it: active = growth inhibition above about 70%; inactive = the rest.
Metric: growth inhibition

## Task Give the measured growth inhibition of O=C(Nc1cc(S(=O)(=O)O)cc2cc(S(=O)(=O)O)c(N=Nc3cc(Nc4nc(Cl)nc(Nc5ccc(S(=O)(=O)O)cc5)n4)ccc3S(=O)(=O)O)c(O)c12)c1ccccc1 .
## Result 25.2% (inactive)

## Task Give the measured growth inhibition of CCC(C)CCOC(=O)c1ccc(N=Cc2ccc(C=Nc3ccc(C(=O)OCCC(C)CC)cc3)cc2)cc1 (stereo not given) .
## Result 29.9% (inactive)

## Task Give the measured growth inhibition of N#CCC(=O)N1CCCC1 .
## Result -26.2% (inactive)

## Task Give the measured growth inhibition of CN1CC2=C(NC(=S)NC2c2ccccc2)/C(=C/c2ccccc2)C1 (stereo not given) .
## Result -13.2% (inactive)

## Task Give the measured growth inhibition of Cc1ccc(S(=O)(=O)OC2C(C)(C)C(=O)C2(C)C)cc1 .
## Result 8.35% (inactive)

Others:
## Task Give the measured growth inhibition of C=CCSC(C)=O .
## Result -6.8% (inactive)

## Task Give the measured growth inhibition of CC(=O)C(CCC#N)(CCC#N)C(=O)Nc1ccccc1 .
## Result -21.5% (inactive)

## Task Give the measured growth inhibition of Cc1ccc(C)c(N2C(=O)C(=O)C(c3nc4ccccc4s3)/C(=N/NC(=O)NN)C2=O)c1 (stereo not given) .
## Result -16.9% (inactive)

## Task Give the measured growth inhibition of CO[C@@]12CC(=O)/C(=C(O)\C=C\c3ccccc3)C(=O)[C@]1(OC)Cc1ccccc1O2 .
## Result 24.6% (inactive)

## Task Give the measured growth inhibition of Cc1ccc2sc3cc(=O)cc(C)c-3nc2c1 .
## Result 25.4% (inactive)
